system: K. pneumoniae; experiment: AK assay 384-well format, Prestwick library screening; type: cell-based, Klebsiella pneumoniae; conditions: Klebsiella pneumoniae, 3 h; 50 μM final drug concentration; planktonic; cutoff for positive 3-fold increase; read-out: AK-based Prestwick Library Screening Results, K. pneumoniae (fold increase in extracellular AK activity)
Counter-ions that a name gives are not always drawn.
metric_name: fold induction at 50 µM
Answer field: number only, no words.

Task: Any idea what its fold induction at 50 µM is? The molecule is `Cc1nc2ccccn2c(=O)c1CCN1CCC(C(=O)c2ccc(F)cc2)CC1`
Result: 1

Task: Any idea what its fold induction at 50 µM is? The molecule is `NC(=O)CN1CCCC1=O`
Result: 1

Task: Any idea what its fold induction at 50 µM is? The molecule is CCN(CC)CCOC(=O)C(Cc1cccc2ccccc12)CC1CCCO1 (stereo not drawn) [Nafronyl oxalate]
Result: 1

Task: Any idea what its fold induction at 50 µM is? The molecule is `Nc1cc(C(Cl)=C(Cl)Cl)c(S(N)(=O)=O)cc1S(N)(=O)=O`
Result: 1

Task: Any idea what its fold induction at 50 µM is? The molecule is COc1cc(NC(C)CCCN)c2ncccc2c1 (stereo not drawn) [Primaquine diphosphate]
Result: 1

Task: Any idea what its fold induction at 50 µM is? The molecule is `Nc1nc2ncc(CNc3ccc(C(=O)N[C@@H](CCC(=O)O)C(=O)O)cc3)nc2c(=O)[nH]1`
Result: 1

Task: Any idea what its fold induction at 50 µM is? The molecule is `O=C1C(O)=C([C@H]2CC[C@H](c3ccc(Cl)cc3)CC2)C(=O)c2ccccc21`
Result: 0.8

Task: Any idea what its fold induction at 50 µM is? The molecule is `CCc1oc2ccccc2c1C(=O)c1cc(Br)c(O)c(Br)c1`
Result: 0.9

Task: Any idea what its fold induction at 50 µM is? The molecule is Cc1cc(N)c2ccccc2[n+]1CCCCCCCCCC[n+]1c(C)cc(N)c2ccccc21 [Dequalinium dichloride]
Result: 1.6

* * *

system: E. cloacae; experiment: AK assay 384-well format, Prestwick library screening; assay type: cell-based, Enterobacter cloacae; conditions: Enterobacter cloacae, 3 h; 50 μM final drug concentration; planktonic; cutoff for positive-scoring molecules 3-fold increase; read-out: AK-based Prestwick Library Screening Results, E. cloacae (fold increase in extracellular AK activity)
Where a name gives a salt, the structure may show the parent alone.
Answer each item with its documented fold induction at 50 µM.
Answer field: number only, no words.

Task: Any idea what its fold induction at 50 µM is? The compound is `CC/C(=C(/CC)c1ccc(O)cc1)c1ccc(O)cc1`
Result: 1.4

Task: Any idea what its fold induction at 50 µM is? The compound is CC1(C)[C@@H](OC(=O)CCC(=O)O)CC[C@]2(C)[C@H]3C(=O)C=C4[C@@H]5C[C@@](C)(C(=O)O)CC[C@]5(C)CC[C@@]4(C)[C@]3(C)CC[C@@H]12 [Carbenoxolone disodium salt]
Result: 1.4

Task: Any idea what its fold induction at 50 µM is? The compound is `CC(=O)[C@H]1CC[C@H]2[C@@H]3C[C@H](C)C4=CC(=O)CC[C@]4(C)[C@H]3[C@@H](O)C[C@]12C`
Result: 1

* * *

test system: K. pneumoniae; assay: AK assay 384-well format, Prestwick library screening; type: cell-based, Klebsiella pneumoniae; conditions: Klebsiella pneumoniae, 3 h; planktonic K. pneumoniae; 50 μM final drug concentration; positive cutoff 3-fold increase; read-out: AK-based Prestwick library screening result, K. pneumoniae (fold increase in extracellular AK activity)
Where a name gives a salt, the structure may show the parent alone.
metric_name: fold induction at 50 µM
Answer field: number only, no words.

Task: Any idea what its fold induction at 50 µM is? The compound is COCCCC/C(=N\OCCN)c1ccc(C(F)(F)F)cc1 [Fluvoxamine maleate]
Result: 0.7

Task: Any idea what its fold induction at 50 µM is? The compound is `NC(=O)c1cc[n+](CC2=C(C(=O)[O-])N3C(=O)[C@@H](NC(=O)Cc4cccs4)[C@H]3SC2)cc1`
Result: 3.8

Task: Any idea what its fold induction at 50 µM is? The compound is C[C@]1(OC(=O)/C=C/c2ccccc2)C[C@@H](O)[C@]2(O)C=CO[C@@H](O[C@@H]3O[C@H](CO)[C@@H](O)[C@H](O)[C@H]3O)[C@@H]21 [Harpagoside]
Result: 0.7

Task: Any idea what its fold induction at 50 µM is? The compound is `Nc1ccc(O)c(C(=O)O)c1`
Result: 0.7

Task: Any idea what its fold induction at 50 µM is? The compound is CC1CS(=O)(=O)CCN1/N=C/c1ccc([N+](=O)[O-])o1 (centres unmarked)
Result: 1.2

Task: Any idea what its fold induction at 50 µM is? The compound is Cc1cccc(Nc2ccncc2S(=O)(=O)NC(=O)NC(C)C)c1 [Torsemide]
Result: 1.3

Task: Any idea what its fold induction at 50 µM is? The compound is OCCN1CCN(CC/C=C2/c3ccccc3Sc3ccc(Cl)cc32)CC1 [Zuclopenthixol hydrochloride]
Result: 1

Task: Any idea what its fold induction at 50 µM is? The compound is CCOC(=O)[C@@](C)(N)Cc1ccc(O)c(O)c1 [Methyldopate hydrochloride]
Result: 1.2

* * *

system: E. faecium; assay: AK assay 384-well format, Prestwick library screening; assay type: cell-based, Enterococcus faecium; settings: Enterococcus faecium, 3 h; planktonic E. faecium; 50 μM final drug concentration; cutoff for positive-scoring molecules 3-fold increase; read-out: AK-based Prestwick Library Screening Results, E. faecium (increase in extracellular AK activity)
Where a name gives a salt, the structure may show the parent alone.
metric_name: fold induction at 50 µM
Answer field: number only, no words.

Task: Any idea what its fold induction at 50 µM is? The compound is `Cc1noc(NS(=O)(=O)c2ccc(N)cc2)c1C`
Result: 0.9

Task: Any idea what its fold induction at 50 µM is? The compound is `CC(=O)Oc1ccc(C(c2ccc(OC(C)=O)cc2)c2ccccn2)cc1`
Result: 1

Task: Any idea what its fold induction at 50 µM is? The compound is NS(=O)(=O)c1cc(C2(O)NC(=O)c3ccccc32)ccc1Cl (centres unmarked)
Result: 0.9

Task: Any idea what its fold induction at 50 µM is? The compound is CC(C(=O)O)c1ccc(C(=O)c2ccccc2)s1 (centres unmarked)
Result: 0.8

Task: Any idea what its fold induction at 50 µM is? The compound is `CC[C@H](C)C(=O)O[C@H]1C[C@@H](C)C=C2C=C[C@H](C)[C@H](CC[C@@H]3C[C@@H](O)CC(=O)O3)[C@H]21`
Result: 1

Task: Any idea what its fold induction at 50 µM is? The compound is CNCCCC12CCC(c3ccccc31)c1ccccc12 [Maprotiline hydrochloride]
Result: 0.8

Task: Any idea what its fold induction at 50 µM is? The compound is COc1cccc2c1C(=O)c1c(O)c3c(c(O)c1C2=O)C[C@@](O)(C(=O)CO)C[C@@H]3O[C@H]1C[C@H](N)[C@H](O)[C@H](C)O1 [Doxorubicin hydrochloride]
Result: 1.7

Task: Any idea what its fold induction at 50 µM is? The compound is Nc1c(Br)cc(Br)cc1CN[C@H]1CC[C@H](O)CC1 [Ambroxol hydrochloride]
Result: 1

* * *

test system: E. faecium; assay: AK assay 384-well format, Prestwick library screening; type: cell-based, Enterococcus faecium; details: Enterococcus faecium, 3 h; planktonic E. faecium; 50 μM final drug concentration; 384-well; cutoff for positive-scoring molecules 3-fold increase; read-out: AK-based Prestwick Library Screening Results: E. faecium (increase in extracellular AK activity)
Structures can show the parent of a compound that is named as a salt.
metric_name: fold induction at 50 µM
Answer field: number only, no words.

Task: What fold induction at 50 µM appears in the records for this compound with E. faecium? CCN(CC)CCNC(=O)c1cc(S(C)(=O)=O)ccc1OC [Tiapride hydrochloride]
Result: 1.1

Task: What fold induction at 50 µM appears in the records for this compound with E. faecium? CO[C@H]1C[C@H](O[C@H]2[C@H](C)[C@@H](O[C@@H]3O[C@H](C)C[C@H](N(C)C)[C@H]3O)[C@@H](C)C[C@@]3(CO3)C(=O)[C@H](C)[C@@H](O)[C@@H](C)[C@@H](C)OC(=O)[C@@H]2C)O[C@@H](C)[C@@H]1O [Oleandomycin phosphate]
Result: 1

Task: What fold induction at 50 µM appears in the records for this compound with E. faecium? O=C1CN(/N=C/c2ccc(-c3ccc([N+](=O)[O-])cc3)o2)C(O)=N1 [Dantrolene sodium salt]
Result: 1

Task: What fold induction at 50 µM appears in the records for this compound with E. faecium? CC(=O)O[C@H]1C(=O)[C@@]2(C)[C@H]([C@H](OC(=O)c3ccccc3)[C@]3(O)C[C@H](OC(=O)[C@H](O)[C@@H](NC(=O)c4ccccc4)c4ccccc4)C(C)=C1C3(C)C)[C@]1(OC(C)=O)CO[C@@H]1C[C@@H]2O [Paclitaxel]
Result: 1

Task: What fold induction at 50 µM appears in the records for this compound with E. faecium? CNC(=C[N+](=O)[O-])NCCSCc1ccc(CN(C)C)o1 [Ranitidine hydrochloride]
Result: 1.1

Task: What fold induction at 50 µM appears in the records for this compound with E. faecium? CCCCN1CCCCC1C(=O)Nc1c(C)cccc1C (stereo not drawn) [Bupivacaine hydrochloride]
Result: 1
